Some compounds, each annotated with its measured IC50.
molecular target: UniProt:P11362; test: Inhibition of bFGF-mediated tyrosine phosphorylation; format: functional

These recorded examples may help you get a feel for the data.
[[record]]
structurenotation = "Cn1c(SSc2c(C(=O)Nc3ccccc3)c3ccccc3n2C)c(C(=O)Nc2ccccc2)c2ccccc21"
observedproperty = "IC50"
experimentalvalue = "4.5 µM"

[[record]]
structurenotation = "COC(=O)C1=C(c2ccccc2)c2ccccc2C1=O"
observedproperty = "IC50"
experimentalvalue = "5.1 µM"


In the following, a different compound is considered.
Tested on UniProt:P11362, the item Cc1c[nH]c(/C=C2\C(=O)Nc3ccccc32)c1CCC(=O)O showed IC50 equal to 20 µM

---

molecular target: Fibroblast growth factor receptor 1 (Homo sapiens)
Sequence (P11362 whole entry): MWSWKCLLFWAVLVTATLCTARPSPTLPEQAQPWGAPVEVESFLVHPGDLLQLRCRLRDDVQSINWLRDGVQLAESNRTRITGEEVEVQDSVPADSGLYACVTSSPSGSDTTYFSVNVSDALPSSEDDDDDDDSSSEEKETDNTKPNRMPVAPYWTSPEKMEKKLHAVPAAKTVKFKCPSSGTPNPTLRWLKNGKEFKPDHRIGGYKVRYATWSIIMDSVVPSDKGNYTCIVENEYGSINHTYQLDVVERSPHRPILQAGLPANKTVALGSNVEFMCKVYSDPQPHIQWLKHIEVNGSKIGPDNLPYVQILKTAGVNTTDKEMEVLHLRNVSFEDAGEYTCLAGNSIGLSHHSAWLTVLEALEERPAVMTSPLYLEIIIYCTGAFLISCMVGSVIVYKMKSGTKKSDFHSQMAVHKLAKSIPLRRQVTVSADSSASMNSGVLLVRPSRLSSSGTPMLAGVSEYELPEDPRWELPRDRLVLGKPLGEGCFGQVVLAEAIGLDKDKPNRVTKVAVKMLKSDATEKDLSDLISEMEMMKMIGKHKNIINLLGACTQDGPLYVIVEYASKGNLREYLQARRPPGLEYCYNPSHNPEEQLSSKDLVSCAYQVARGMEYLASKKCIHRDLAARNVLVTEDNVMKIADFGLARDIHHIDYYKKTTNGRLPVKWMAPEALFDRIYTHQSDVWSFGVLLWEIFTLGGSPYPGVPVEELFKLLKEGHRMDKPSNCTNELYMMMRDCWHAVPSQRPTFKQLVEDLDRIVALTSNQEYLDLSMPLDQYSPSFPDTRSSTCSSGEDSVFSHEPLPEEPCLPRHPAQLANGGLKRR
Could you please mark fulfilled for values of IC50 below 1000 nM and not fulfilled for values at or above it?

Here are 5 compounds together with their reported answers.
[[record]]
structurenotation = "Nc1cc2nc(N)c(-c3ccccc3)cc2cn1"
classification = "not fulfilled"

[[record]]
structurenotation = "COc1cc(OC)cc(-c2cc3cnc(N)nc3nc2N)c1"
classification = "fulfilled"

[[record]]
structurenotation = "CCNC(=O)Nc1nc2cc(N)ncc2cc1-c1ccccc1"
classification = "not fulfilled"

[[record]]
structurenotation = "CCNC(=O)Nc1nc2nc(N)ncc2cc1-c1c(Cl)cccc1Cl"
classification = "fulfilled"

[[record]]
structurenotation = "CC(C)(C)NC(=O)Nc1nc2cc(N)ncc2cc1-c1c(Cl)cccc1Cl"
classification = "fulfilled"


Input: Lab note: confirm whether the reported IC50 for this compound is below 1000 nM, equality not counting. compound: CCNC(=O)Nc1nc2cc(N)ncc2cc1-c1cc(OC)cc(OC)c1
Output: fulfilled

Input: Below 1000 nM on IC50? Entry COc1cc(OC)cc(-c2cc3cnc(N)nc3nc2NC(=O)NC(C)(C)C)c1
Output: fulfilled

Input: Please indicate whether the reported IC50 of Nc1cc2nc(N)c(-c3c(Cl)cccc3Cl)cc2cn1 is strictly below 1000 nM.
Output: not fulfilled

---

Endpoint: pIC50. System: UniProt:P11362. Items follow.
Formally, pIC50 is defined as -log10 of the concentration c, with c in mol/L.

# example entries with known answers
[[record]]
structurenotation = "COc1cc(OC)cc(-c2cc3cnc(NC(=O)NC(C)(C)C)cc3nc2NC(=O)NC(C)(C)C)c1"
experimentalvalue = 6.80

[[record]]
structurenotation = "COc1cc(OC)cc(-c2cc3cnc(NC(C)=O)cc3nc2NC(=O)NC(C)(C)C)c1"
experimentalvalue = 7.60

[[record]]
structurenotation = "CNC(=O)Nc1nc2cc(N)ncc2cc1-c1cc(OC)cc(OC)c1"
experimentalvalue = 7.02

[[record]]
structurenotation = "COc1cc(OC)cc(-c2cc3cnc(NC(=O)C(F)(F)F)cc3nc2N)c1"
experimentalvalue = 7.21

[[record]]
structurenotation = "CC(C)(C)NC(=O)Nc1nc2cc(N)ncc2cc1-c1ccccc1"
experimentalvalue = 5.72


Response field pIC50 (UniProt:P11362) for item COc1cc(OC)cc(-c2cc3cnc(N)cc3nc2NC(=O)NC(C)(C)C)c1 : 7.38

Value sought: pIC50, system UniProt:P11362, item CC(C)(C)NC(=O)Nc1nc2nc(N)ncc2cc1-c1c(Cl)cccc1Cl . Result: 6.89

Reported pIC50 (UniProt:P11362) for entry CCNC(=O)Nc1nc2cc(N)ncc2cc1-c1c(Cl)cccc1Cl is 6.82

COc1cc(OC)cc(-c2cc3cnc(N)cc3nc2NC(=O)Nc2ccccc2)c1 tested on UniProt:P11362 gave pIC50: 6.29

// assay UniProt:P11362, entry COc1cc(OC)cc(-c2cc3cnc(N)cc3nc2N)c1 , pIC50 value = 6.70
